These measurements were taken from paper PMC5338263.

Tested on: ANDV Chile 9717869 (Andes virus)
Assay: in vitro
Conditions: human

structure_smiles_string: CCC(CC)COC(=O)[C@H](C)N[P@](=O)(OC[C@H]1O[C@@](C#N)(c2ccc3c(N)ncnn23)[C@H](O)[C@@H]1O)Oc1ccccc1
assay_system: ANDV Chile 9717869 (Andes virus)
selectivity ratio: 1.4

###

System: MARV Rec. Bat371-Gluc
Assay: organism not typed
Conditions: Huh-7
reported_property: EC50 (nM)

structure_smiles_string: CCC(CC)COC(=O)[C@H](C)N[P@](=O)(OC[C@H]1O[C@@](C#N)(c2ccc3c(N)ncnn23)[C@H](O)[C@@H]1O)Oc1ccccc1
quantitative_result: 19.3

###

Tested on: EBOV Rec. Mayinga-GFP (Ebola virus)
Assay: in vitro
Details: human
reported_property: selectivity ratio

structure_smiles_string: CCC(CC)COC(=O)[C@H](C)N[P@](=O)(OC[C@H]1O[C@@](C#N)(c2ccc3c(N)ncnn23)[C@H](O)[C@@H]1O)Oc1ccccc1
quantitative_result: 151
//
structure_smiles_string: N#C[C@@]1(c2ccc3c(N)ncnn23)O[C@H](CO)[C@@H](O)[C@H]1O
quantitative_result: 31

###

Tested on: NiV Rec. M-Luc2AM (Nipah virus)
Assay: in vitro
Settings: human
reported_property: selectivity ratio

compound: N#C[C@@]1(c2ccc3c(N)ncnn23)O[C@H](CO)[C@@H](O)[C@H]1O [Nuc]
assay_system: NiV Rec. M-Luc2AM (Nipah virus)
reported_property: selectivity ratio
quantitative_result: 33
--
compound: CCC(CC)COC(=O)[C@H](C)N[P@](=O)(OC[C@H]1O[C@@](C#N)(c2ccc3c(N)ncnn23)[C@H](O)[C@@H]1O)Oc1ccccc1 [GS-5734]
assay_system: NiV Rec. M-Luc2AM (Nipah virus)
reported_property: selectivity ratio
quantitative_result: 184

###

Tested on: EBOV wt Makona
Experiment: microbe, parasite or virus in culture
Type: cell-based, Ebola virus
Conditions: Zaire ebolavirus, Huh-7
reported_property: EC50 (µM)

structure_smiles_string: N#C[C@@]1(c2ccc3c(N)ncnn23)O[C@H](CO)[C@@H](O)[C@H]1O
reported_property: EC50
quantitative_result: 1.61

###

Test system: Filo (filoviruses)
Experiment: organism not typed
Format: cell-based
Settings: read-out: potency class (EC50)
pEC50: −log10 of the molar value.
reported_property: pEC50

structure_smiles_string: CCC(CC)COC(=O)[C@H](C)N[P@](=O)(OC[C@H]1O[C@@](C#N)(c2ccc3c(N)ncnn23)[C@H](O)[C@@H]1O)Oc1ccccc1
result: > 7.00

###

Test system: NiV M-1999
Experiment: microbe, parasite or virus in culture
Settings: Henipavirus nipahense
pEC50: −log10 of the molar value.

structure_smiles_string: CCC(CC)COC(=O)[C@H](C)N[P@](=O)(OC[C@H]1O[C@@](C#N)(c2ccc3c(N)ncnn23)[C@H](O)[C@@H]1O)Oc1ccccc1
pEC50: 7.33

###

Test system: HeV 1996 (Hendra virus)
Assay: in vitro
Conditions: human

structure_smiles_string: CCC(CC)COC(=O)[C@H](C)N[P@](=O)(OC[C@H]1O[C@@](C#N)(c2ccc3c(N)ncnn23)[C@H](O)[C@@H]1O)Oc1ccccc1
selectivity ratio: 150

###

Tested on: RSV Rec. rgRSV224 (A2) (respiratory syncytial virus)
Experiment: in vitro
Settings: human

structure_smiles_string: CCC(CC)COC(=O)[C@H](C)N[P@](=O)(OC[C@H]1O[C@@](C#N)(c2ccc3c(N)ncnn23)[C@H](O)[C@@H]1O)Oc1ccccc1
selectivity ratio: 395
--
structure_smiles_string: N#C[C@@]1(c2ccc3c(N)ncnn23)O[C@H](CO)[C@@H](O)[C@H]1O
selectivity ratio: 79
